Data credit: PubChem BioAssay (NCATS)

# PROTOCOL_NOTES: Viability qHTS for spleen associated tyrosine kinase inhibitor (SYKi) drug resistant MV4-11 cells (AID 1963824); note: nearly all actives have a fitted effect of over 35% in size
# SETTINGS: SYKi-resistant MV4-11 viability, CellTiter-Glo, 72 h; series mostly up to 45 µM
Inconclusive results are not listed. Active and inactive are the calls of the source. Calls come from the whole dose curve; as a rule, active = well fitted cell-killing curve with a large enough effect; inconclusive = small, poorly fitted or top-dose-only effect, or effect the other way; inactive = no such curve, though single readings can be large or run the other way.
API: response.call in active, inactive

Take a look at these entries with their results.
MOLECULE	ASSIGNED_CATEGORY
O=C(/C=C\n1cnc(-c2cc(C(F)(F)F)cc(C(F)(F)F)c2)n1)NNc1cnccn1	active
Cc1c(NC(=O)c2cccnc2)c(=O)n(-c2ccccc2)n1C	inactive
Cn1cc(Nc2cnccc2C(=O)O)c2cccnc21	inactive

In: Record request — test call for C[C@@H]1C[C@H](O[C@@H]2O[C@H](CO[C@@H]3OC[C@](O)(CO)[C@H]3O)[C@@H](O)[C@H](O)[C@H]2O)CC(C)(C)[C@H]1/C=C/[C@@H](C)O
Out: inactive

In: Record request — test call for Cc1nc(-c2ccc(OCC(C)C)c(C#N)c2)sc1C(=O)O
Out: inactive

In: Record request — test call for O=C1c2ccccc2C(=O)C1c1ccc(Br)cc1
Out: inactive

In: Record request — test call for Cc1ccc(C(C)OC(=O)C2(C)CCC(C(=O)O)C2(C)C)cc1 (stereo unspecified)
Out: inactive

In: Record request — test call for Cc1cncc2cccc(S(=O)(=O)N3CCCNC[C@@H]3C)c12
Out: active

In: Record request — test call for COc1cc(N(C)CCN(C)C)c(N)cc1Nc1nccc(-c2cn(C)c3ccccc23)n1
Out: active

In: Record request — test call for COc1ccc(C(=O)c2ccccc2)c(O)c1
Out: inactive

In: Record request — test call for CN[C@@H](C)C(=O)N[C@H](C(=O)N1CCC[C@H]1C(=O)Nc1sc(-c2ncco2)nc1-c1ccccc1)C1CCCCC1
Out: active

In: Record request — test call for Cc1ccc(=O)n(-c2ccccc2)c1
Out: inactive

In: Record request — test call for NC[C@H]1O[C@H](O[C@H]2[C@H](O)[C@@H](O[C@H]3O[C@H](CO)[C@@H](O)[C@H](N)[C@H]3O)[C@H](N)C[C@@H]2N)[C@H](N)[C@@H](O)[C@@H]1O
Out: inactive

In: Record request — test call for Cc1cc(Cl)ccc1OCCCC(=O)NO
Out: active

###

# TARGET_OR_TEST_SYSTEM: Cytochrome P450 3A7 (Homo sapiens)
# PROTOCOL_NOTES: Cytochrome P450 family 3 subfamily A member 7 (CYP3A7) small molecule antagonists: luciferase biochemical qHTS assay (AID 1963596); note: nearly all actives have a fitted effect of over 40% in size; note: potency is the fitted concentration of half-maximal effect
# SETTINGS: P450-Glo CYP3A7 enzyme luminescence, 1 h; series mostly up to 57.4 µM
Inconclusive results are not listed. Calls of active or inactive are those of the source. Calls follow the shape of the dose curve; as a rule, active = well fitted inhibition curve with a large enough effect; inconclusive = small, poorly fitted or top-dose-only effect; inactive = no such curve, though single readings can be large or run the other way.
VALUE_TYPE: Potency

Worked cases, Potency given:
                                   compound            result
0                                 CCCC(=O)O          inactive
1  CN(C)c1ccc(C(=C2C=CC(=[N+](C)C)C=C2)c2c(O)c(S(=O)(=O)[O-])cc3cc(S(=O)(=O)O)ccc23)cc1          inactive
2  CC(C)c1noc(C2CCN(c3ncnc(Nc4ccc(S(C)(=O)=O)cc4F)c3[N+](=O)[O-])CC2)n1          inactive
3  COc1cc2c3cc1Oc1cc(ccc1O)C[C@@H]1c4c(cc(OC)c(O)c4Oc4ccc(cc4)C[C@@H]3N(C)CC2)CC[N+]1(C)C          inactive
4  COc1c(N2C[C@@H]3CCCN[C@H]3C2)c(F)cc2c(=O)c(C(=O)O)cn(C3CC3)c12          inactive
5  COc1cc(C(=O)NC(=S)Nc2cccc(NC(=O)c3ccccc3)c2)cc(OC)c1OC          inactive
6  Cc1nc([N+](=O)[O-])cn1-c1ccc([N+](=O)[O-])cc1          inactive
7                       CC(=O)c1cc2ccccc2s1          inactive
8                 CN(C)C(=O)Oc1ccc[n+](C)c1          inactive
9  CCc1ccc(CNC(=O)C2CCCN(c3nnc(C)c4c(C)n(-c5ccccc5)nc34)C2)cc1 (configuration not stated)  2820 nM (active)

Per the record, NCCNCCNCCN has Potency of inactive

Per the record, Cc1ccc(C2=Nc3ccccc3N(CC(=O)Nc3ccccc3F)C(=O)C2)cc1C has Potency of inactive

Per the record, CC(=O)Nc1ncc([N+](=O)[O-])s1 has Potency of inactive

Per the record, CNc1ccc([N+](=O)[O-])cc1-n1cnc(-c2ccc(C(F)(F)F)cc2)c1 has Potency of inactive

Per the record, Cc1ccc(-c2ccc3ncc4c(c3n2)n(C2CCN(C(=O)[C@H](C)O)CC2)c(=O)n4C)cn1 has Potency of inactive

Per the record, O=C1O[C@H]([C@@H](O)CO)C(O)=C1O has Potency of inactive

Per the record, CCn1ccc(NS(=O)(=O)c2ccc(N)cc2)nc1=O has Potency of inactive
